Where do these numbers come from? They come from PubChem BioAssay.

Molecular target: Dual specificity protein phosphatase 6 (Homo sapiens) (UniProt Q16828)
Sequence (Q16828 whole entry, looked up): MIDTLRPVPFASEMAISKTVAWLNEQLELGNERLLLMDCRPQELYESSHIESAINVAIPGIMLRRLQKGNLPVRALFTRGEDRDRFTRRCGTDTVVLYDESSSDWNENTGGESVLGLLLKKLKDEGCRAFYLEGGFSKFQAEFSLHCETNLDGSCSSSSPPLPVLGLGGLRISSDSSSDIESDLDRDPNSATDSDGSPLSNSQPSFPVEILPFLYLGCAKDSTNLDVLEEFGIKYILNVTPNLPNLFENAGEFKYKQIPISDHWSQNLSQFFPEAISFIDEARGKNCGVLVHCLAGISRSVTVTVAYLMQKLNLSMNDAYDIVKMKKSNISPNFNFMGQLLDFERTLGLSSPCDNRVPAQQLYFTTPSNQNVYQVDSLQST
Test: DUSP6 inhibitors restoring Erk phosphorylation by chemical complementation, primary imaging in DUSP6-transfected HeLa (AID 609);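 note: phospho-Erk level distribution per well compared with pooled transfected vehicle control wells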
Conditions: HeLa MKP-3 transfected, phospho-Erk imaging KS statistic; at 10 µM; hits give high values; cells stimulated with TPA for 15 min
What inhibition was measured for each of the following?
Number in %, nothing else.

Reported inhibition, compound COc1ccc(OC)c(C2/C(=C(/O)c3ccc(C)cc3)C(=O)C(=O)N2Cc2ccco2)c1 (stereo unspecified) : ____
-7.86

Request: CC(=O)Nc1cnc2ccccc2n1
-6.06

Request: O=C(O)c1ccccc1Nc1cccc(C(F)(F)F)c1
23.4

Request: COC(=O)CSc1nnc2n(-c3ccc(OC)cc3)c(=O)c3c4c(sc3n12)CCCCC4
1.04

Request: c1cncc(-c2nnc3sc(-c4ccco4)nn23)c1
-2.47

Request: CCN(CC)CC#CCOC(=O)C(O)(c1ccccc1)C1CCCCC1 (stereo unspecified)
5.42

Request: C=CCn1c(SCC(=O)OC)nc2sc3c(c2c1=O)CCN(C)C3
1.48

Request: C[C@@H]1C[C@H]2[C@@H]3CCC4=CC(=O)C=C[C@]4(C)[C@@]3(F)[C@@H](O)C[C@]2(C)[C@H]1C(=O)CO
31.1

Request: C/C(=N\O)c1ccc2[nH]ccc2c1
-7.01

Request: O=c1[nH]c(CN2CCCCC2)nc2c1C1(CCCCC1)Cc1ccccc1-2
-4.7

Request: O/N=C1\CCc2cc(Cl)ccc21
-0.159

Request: CN(C)c1nc(OCCOC(=O)Nc2ccc(Cl)cc2Cl)nc(N(C)C)n1
-5.26

Request: CC(C)Nc1nc(NC(C)C)nc(N(C)n2cnnc2)n1
20.8

Request: CC(C)OC(=O)[C@H]1[C@H](c2ccc(Cl)cc2)[C@@](C#N)(C(N)=O)[C@@H]2C=CC(C(N)=O)=CN21
2.46

Request: CCOC(=O)C1=C(C(C)=O)C(c2cccnc2)C(C#N)=C(N)O1 (stereo unspecified)
6.04

Request: CCOc1nc(SCCOc2ccccc2)nc(N(C)C)n1
22.8

Request: CCOC(=O)C1Cc2c([nH]c3ccccc23)C(C)N1 (stereo unspecified)
-18.6

Request: C(=C\c1ccccc1)/CN1CCN(C(c2ccccc2)c2ccccc2)CC1
11.3

Request: CCSC(SCC)[C@H](O)[C@@H](O)[C@H](O)[C@H](O)CO
-4.44

Request: COc1ccc(NCc2cc3ccccc3[nH]c2=O)cc1
-12.3

Request: Cc1c(N2C(=O)SC(CC(=O)O)C2=O)c(=O)n(-c2ccccc2)n1C (stereo unspecified)
-10.5

Request: CCC1=C(C(=O)OC)C(c2cc(OC)ccc2OC)C(C#N)=C(N)O1 (stereo unspecified)
5.65

Request: c1ccc(OCc2nn3c(-c4cccnc4)nnc3s2)cc1
-16.8

Request: COC(=O)CCc1c(C)[nH]c(C(=O)OCc2ccccc2)c1C
-5.89

Request: c1ccc(-c2nc(NCC3CCCO3)c3ccccc3n2)nc1 (stereo unspecified)
-1.75

Request: COc1cccc(-c2nnc3sc(-c4ccc(Cl)cc4)nn23)c1
-4.27

Request: COc1cccc(-c2nc(N3CC(C)CC(C)C3)c3ccccc3n2)c1O (stereo unspecified)
-5.26

Request: COC(=O)c1ccc(Nc2cc(C)nc(-c3ccccc3O)n2)cc1
1.9e-07

Request: CN(C)CC(O)COc1ccc(C(C)(C)c2ccc(OCC(O)CN(C)C)cc2)cc1 (stereo unspecified)
-5.62

Request: CC1=CC(c2ccccc2)n2nc(N3C(=O)C4CC=CCC4C3=O)nc2N1 (stereo unspecified)
-5.26

Request: COc1ccc(C(CC(=O)N2CCOCC2)C(C)C)cc1 (stereo unspecified)
-5.26

Request: CCc1ccc2c(c1)C(C)=CC(C)(C)N2
-13.3

Request: Cc1nnc(NCc2n[nH]c(=O)c3ccccc23)c2ccccc12
7.21

Request: Cc1ccc(Cn2ncc3c(N4CCN(c5ccc(C)cc5)CC4)ncnc32)cc1
17.8

Request: CCOc1nc(SC(C(C)=O)C(=O)Nc2ccccc2)nc(N(C)C)n1 (stereo unspecified)
10.5

Request: Clc1ccc(Cl)c(-c2ccc(/C=N/c3ncn[nH]3)o2)c1
-4.27

Request: CCCc1cc(C(=O)Cc2ccc(F)cc2)c(O)cc1O
19.8

Request: c1ccc2[nH]c(-c3cscn3)nc2c1
1.38

Request: CCN1CCN(c2nc3c(C)cccn3c(=O)c2/C=C(\C#N)S(=O)(=O)c2ccccc2)CC1
3.5

Request: CC(=O)N1CCC2(CC1)C(C#N)=C(N)Oc1n[nH]c(C(F)(F)F)c12
-1.12

Request: Cc1nn(-c2cccc(Cl)c2)c2c1C(c1ccncc1)C(C#N)=C(N)O2 (stereo unspecified)
2.46

Request: CC(C)(S)[C@@H](N)C(=O)O
3.45

Request: O=C1C=C(O)CC(c2cccs2)C1 (stereo unspecified)
-1.12

Request: CCCCCCc1cc2cc(-c3nnc(-c4ccccc4O)o3)c(=O)oc2cc1O
-7.79

Request: N=c1c[n+](N2CCOCC2)[n-]o1
-8.38

Request: CCOC(=O)CC(=O)CSc1nc2c(cc1C#N)CCCCCC2
-8.95
